Experimental protocol: inhibitors of TWEAK-Fn14 signaling, primary screen, luciferase reporter cells, uHTS (AID 1159606)
Condition: TWEAK-stimulated Fn14 reporter cells, luciferase luminescence, 8 h; at 10 µM
In all, about 360,000 compounds went through this assay and about 7,300 (2%) were called active. Rule as the data show it: active = inhibition above about 50%; inactive = the rest. Many of the other results were omitted from the sample, so actives are more common in it than they were.
Respond with a class label; see 1.0 = active, 0.0 = inactive

- Compound: "O=C(Nc1ccncc1)c1c(F)cccc1F"
  Discrete label: 1.0
- Compound: "CCOC(=O)N1CCN(C(c2ccnc3ccccc23)c2nnnn2-c2c(C)cccc2C)CC1 (centres undefined)"
  Discrete label: 0.0
- Compound: "O=C(Nc1ccc2c(c1)CCC2)c1cccc(S(=O)(=O)Nc2ccccc2Cl)c1"
  Discrete label: 0.0

Incoming: Recorded call for O=c1ccc2c(-c3ccccc3S(=O)(=O)O)c3ccc(O)c(O)c3oc-2c1O ?
Outgoing: 1.0

Incoming: Recorded call for CN(C)S(=O)(=O)N1CCN(c2ccc([N+](=O)[O-])cc2)CC1 ?
Outgoing: 0.0

Incoming: Recorded call for O=C(COc1ccc(S(=O)(=O)NCCc2ccccc2)cc1)N1CCCC1 ?
Outgoing: 0.0

Incoming: Recorded call for Cn1c(N2CCOCC2)c(C=O)c2ccccc21 ?
Outgoing: 0.0

Incoming: Recorded call for Nc1ccc(S(=O)(=O)Nc2nccc(/C=C/c3ccc(Br)s3)n2)cc1 ?
Outgoing: 0.0

====

Experimental protocol: inhibitors of TWEAK-Fn14 signaling, primary screen, luciferase reporter cells, uHTS (AID 1159606)
Condition: TWEAK-stimulated Fn14 reporter cells, luciferase luminescence, 8 h; at 10 µM
Among all 360,000 compounds or so, about 7,300 (2%) were called active. No stated cut-off is given here; in the data, active means inhibition above about 50%; inactive means the rest. The sample holds actives, similar compounds and a random draw of the others, so the mix is not that of the screen.
Respond with a class label; see True (active), False (inactive)

The examples below pair each entry with its known result.
- Compound smiles: "OCC1(Cc2ccccc2C(F)(F)F)CCN(Cc2ccncc2)CC1"
  Discrete label: "False"
- Compound smiles: "COc1ccc(CC(=O)Nc2nc(-c3ccc(F)c(F)c3)cs2)cc1OC"
  Discrete label: "True"
- Compound smiles: "COc1cc(CC(=O)Nc2nc(-c3ccc(F)c(F)c3)cs2)cc(OC)c1OC"
  Discrete label: "True"

Incoming: Recorded call for Cc1ccc(-n2c(SCC(=O)N3c4ccccc4Sc4ccccc43)nnc2-c2ccncc2)cc1 ?
Outgoing: False

Incoming: Recorded call for Cc1cc(=O)c2ccc(NC(=O)c3ccccc3)cc2[nH]1 ?
Outgoing: False

====

Experimental protocol: inhibitors of TWEAK-Fn14 signaling, primary screen, luciferase reporter cells, uHTS (AID 1159606)
Condition: TWEAK-stimulated Fn14 reporter cells, luciferase luminescence, 8 h; at 10 µM; active compounds read high
The campaign covered roughly 360,000 compounds. About 7,300 (2%) were called active. Only a selection was taken, and actives are over-represented in it overall.
Assay metric: inhibition (%)
Give bare numbers, in %.

Example molecules with recorded inhibition:
- Molecule: "O=C(c1ccc(C(F)(F)F)cc1)N1CCC(=O)N([C@H](COCc2ccccc2)Cc2ccccc2)CC1"
  Readout value: 13.8
- Molecule: "O=C(CCc1ccccc1)Nc1nn[nH]n1"
  Readout value: -6.61

# return inhibition for each item in the list
1. CCC1(C)NC(=O)N(CC(=O)N2CCN(c3cccc(Cl)c3)CC2)C1=O (stereo unspecified)
2. CCc1ccc2c(c1)C1(NN=C(c3ccccc3)S1)C(=O)N2 (stereo unspecified)
3. CCc1ccc2c(c1)NC(=O)C2(C)Cc1ccc(OC(F)(F)F)cc1 (stereo unspecified)
4. Clc1ccccc1Nc1nc(NCc2cccs2)nc2ccsc12

Outgoing:
1: 5.53; 2: 87.5; 3: 8.25; 4: 12.1
